AC50 values by entry
Target: Motilin receptor (Homo sapiens); also: assay procedure not described here
Sequence (O43193 whole entry): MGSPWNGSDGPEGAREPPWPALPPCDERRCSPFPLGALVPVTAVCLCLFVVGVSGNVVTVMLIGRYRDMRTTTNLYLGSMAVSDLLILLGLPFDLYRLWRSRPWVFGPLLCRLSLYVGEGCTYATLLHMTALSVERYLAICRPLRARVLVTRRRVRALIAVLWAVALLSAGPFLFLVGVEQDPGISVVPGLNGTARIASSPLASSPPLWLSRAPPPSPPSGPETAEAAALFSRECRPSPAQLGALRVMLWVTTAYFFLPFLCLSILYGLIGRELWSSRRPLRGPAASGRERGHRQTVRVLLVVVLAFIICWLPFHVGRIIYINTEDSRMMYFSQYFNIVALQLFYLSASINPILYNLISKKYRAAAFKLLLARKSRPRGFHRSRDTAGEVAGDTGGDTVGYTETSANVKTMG

Guide cases for AC50, answers given:
COMPOUND: CCOC(=O)[C@H](CCc1ccccc1)N[C@@H](C)C(=O)N1Cc2ccccc2C[C@H]1C(=O)O
AC50: > 10 µM

COMPOUND: CN(C)CCN(Cc1ccccc1)c1ccccn1
AC50: > 10 µM

COMPOUND: OCC(CO)N[C@H]1C[C@](O)(CO)[C@@H](O)[C@H](O)[C@H]1O
AC50: > 30 µM

COMPOUND: CC1=C(C(=O)O)N2C(=O)[C@@H](NC(=O)[C@H](N)C3=CCC=CC3)[C@H]2SC1
AC50: > 30 µM

COMPOUND: C[C@H](Cn1cnc2c(N)ncnc21)OCP(=O)(O)O [TENOFOVIR ANHYDROUS]
AC50: > 30 µM

Per the record, CCCCC[C@H](O)CC[C@@H]1[C@H]2Cc3cccc(OCC(=O)O)c3C[C@H]2C[C@H]1O has AC50 of > 30 µM

Sample NCCCNCCSP(=O)(O)O ; AC50 observed: > 30 µM

Sample CCN(CC)Cc1nccn1-c1ccc([N+](=O)[O-])cc1C(=O)c1ccccc1Cl ; AC50 observed: > 30 µM

###

# AC50 values compiled below
Biological target: UniProt P08913
Sequence (P08913 whole entry): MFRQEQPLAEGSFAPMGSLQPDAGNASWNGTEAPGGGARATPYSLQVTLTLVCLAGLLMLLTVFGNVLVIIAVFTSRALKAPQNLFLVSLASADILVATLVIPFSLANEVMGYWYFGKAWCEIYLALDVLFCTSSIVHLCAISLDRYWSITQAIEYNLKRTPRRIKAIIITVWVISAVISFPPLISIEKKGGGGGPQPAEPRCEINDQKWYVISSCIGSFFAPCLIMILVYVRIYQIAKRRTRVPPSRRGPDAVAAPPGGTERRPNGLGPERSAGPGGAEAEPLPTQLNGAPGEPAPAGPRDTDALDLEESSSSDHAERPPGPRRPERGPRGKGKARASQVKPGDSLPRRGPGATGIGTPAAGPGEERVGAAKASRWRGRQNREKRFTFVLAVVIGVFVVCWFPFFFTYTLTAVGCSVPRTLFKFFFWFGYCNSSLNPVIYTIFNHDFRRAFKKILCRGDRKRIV
Format: functional, cell-based

Below, each entry is followed by its recorded AC50 result.
COMPOUND: CCC(=O)O[C@H](CC(=O)O)C[N+](C)(C)C [LEVOCARNITINE PROPIONATE]
READOUT_NAME: AC50
DATA_VALUE: > 30 µM
//
COMPOUND: CCN(CC)CCn1c(=O)c(Cc2ccc(OC)cc2)nc2ccccc21 [CAROVERINE]
READOUT_NAME: AC50
DATA_VALUE: > 30 µM

For reference, reported AC50 for CCCCOC(=O)C(=O)Nc1cccc(-c2nnn[nH]2)c1 [TAZANOLAST] stands at > 30 µM

Recorded result, O=C(O)COC(=O)Cc1ccccc1Nc1c(Cl)cccc1Cl [ACECLOFENAC] , AC50: > 10 µM

###

Molecular target: UniProt:P21554
Sequence (P21554 whole entry): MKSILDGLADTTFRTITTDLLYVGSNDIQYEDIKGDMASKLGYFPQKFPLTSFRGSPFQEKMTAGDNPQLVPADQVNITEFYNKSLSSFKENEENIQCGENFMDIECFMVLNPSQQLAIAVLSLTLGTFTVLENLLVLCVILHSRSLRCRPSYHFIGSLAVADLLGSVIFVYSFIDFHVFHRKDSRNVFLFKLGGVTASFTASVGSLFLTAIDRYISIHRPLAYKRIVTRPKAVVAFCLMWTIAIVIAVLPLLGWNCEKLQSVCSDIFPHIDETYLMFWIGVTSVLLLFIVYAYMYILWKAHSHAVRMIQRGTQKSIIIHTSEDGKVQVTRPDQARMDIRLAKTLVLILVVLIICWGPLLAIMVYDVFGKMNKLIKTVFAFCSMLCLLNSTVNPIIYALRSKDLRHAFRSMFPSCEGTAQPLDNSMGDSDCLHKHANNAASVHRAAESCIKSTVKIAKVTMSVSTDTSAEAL
Assay type: functional, cell-based
READOUT_NAME: AC50

Use the examples below as a reference point.
COMPOUND: O=C(O)COC(=O)Cc1ccccc1Nc1c(Cl)cccc1Cl [ACECLOFENAC]
DATA_VALUE: > 30 µM
--
COMPOUND: CS(=O)(=O)Nc1ccc([N+](=O)[O-])cc1Oc1ccccc1 [NIMESULIDE]
DATA_VALUE: > 30 µM
--
COMPOUND: CN(C)CCC(O)(c1ccccc1)c1ccccc1Cl (centres undefined) [CHLOPHEDIANOL]
DATA_VALUE: > 30 µM
--
COMPOUND: NCC1(CC(=O)O)CCCCC1 [GABAPENTIN]
DATA_VALUE: > 30 µM

Field AC50 (entry CO/N=C(\C(=O)N[C@@H]1C(=O)N2C(C(=O)O)=C(CSc3nc(C)c(CC(=O)O)s3)CS[C@H]12)c1csc(N)n1 [CEFODIZIME] ) reads > 30 µM

compound CO/N=C(\C(=O)N[C@@H]1C(=O)N2C(C(=O)[O-])=C(C[n+]3ccc(N)n3CCO)CS[C@H]12)c1csc(N)n1 [CEFOSELIS] , AC50 observed: > 30 µM

// recorded AC50 for C[C@@H](Cc1ccccc1)N(C)Cc1ccccc1 [BENZPHETAMINE] : > 30 µM

AC50 recorded for this compound, Cc1nnc2n1-c1ccc(Cl)cc1C(c1ccccc1)=NC2 [ALPRAZOLAM] , is > 30 µM

// AC50 lookup, compound = CN(C)CCOC(c1ccc(Cl)cc1)c1ccccn1 (centres undefined) [CARBINOXAMINE] , result: > 30 µM

// data source = ChEMBL document CHEMBL5291721
